All figures here come from paper PMC4552634.

# Test system: P. falciparum stage V gametocytes
# Parameters: BacTiter-Glo ATP luminescence viability of purified stage V gametocytes in 384-well plates, per cent inhibition versus DMSO
# SETUP_CONDITIONS: 48 h, 5 µM; inhibitor
In all, about 13,000 compounds went through this assay and about 3,200 (25%) showed an effect of 50% or more. The list shows a part of the results.
REPORTED_METRIC: % Inhibition (%)
Dear colleague, please return just the value in %, with no unit written.

Below, 2 molecules whose answers are already recorded.
{"SMILES_DATA": "Cc1cccc(C=NNc2cc(C)nc3ccc(F)cc23)n1", "ENDPOINT_UNIT": "%", "% Inhibition": -41.63}
{"SMILES_DATA": "CC(C)CNC(=O)c1ccnc(-c2ccc(CNC3Cc4ccccc4C3)cc2)c1", "ENDPOINT_UNIT": "%", "% Inhibition": 4.563}

Query: Suppose we examine the molecule Cc1ccc(Nc2nc(N/N=C/c3ccccc3[N+](=O)[O-])nc(Nc3ccc([N+](=O)[O-])cc3)n2)cc1C ; what % Inhibition value has been reported?
Result: 32.01

* * *

# Test system: P. falciparum stage V gametocytes
# Set-up: BacTiter-Glo ATP luminescence viability of purified stage V gametocytes in 384-well plates, per cent inhibition versus DMSO
# SETUP_CONDITIONS: 48 h, 5 µM; inhibitor
Out of some 13,000 compounds screened, about 3,200 (25%) showed an effect of 50% or more. This is one part of the list.
// reported % Inhibition for each item listed
Dear colleague, please return just the value in %, with no unit written.

{"MOLECULE": "CO/C(=C\\C=C\\c1cc2cc(Cl)c(Cl)cc2[nH]1)C(=O)NCCCN1CC(C)N(C)CC1C (stereo not shown)", "QUANTITATIVE_READOUT": -57.76}
{"MOLECULE": "COc1ccc(Cl)cc1N1CCN(CCCNC(=O)c2ccc(-c3nc4cc(Cl)c(F)cc4[nH]3)c(F)c2)CC1", "QUANTITATIVE_READOUT": -15.17}
{"MOLECULE": "CCOC(=O)C1CCN(CCCNC(=O)/C(=C/C=C/c2cc3cc(Cl)c(Cl)cc3[nH]2)OC)CC1", "QUANTITATIVE_READOUT": -1.751}
{"MOLECULE": "CO/C(=C\\C=C\\c1cc2cc(Cl)c(Cl)cc2[nH]1)C(=O)NCCN1CCCCC1", "QUANTITATIVE_READOUT": 39.34}
{"MOLECULE": "COc1ccc2nc(-c3ccc(C(=O)NCCCN4CCN(c5cc(Cl)ccc5OC)CC4)cc3)[nH]c2c1", "QUANTITATIVE_READOUT": -1.879}

Query: Suppose we examine the molecule CO/C(=C\C=C\c1cc2cc(Cl)c(Cl)cc2[nH]1)C(=O)NCCCN1CCN(c2cccc(Cl)c2)CC1 ; what % Inhibition value has been reported?
Result: 15.28

Query: Suppose we examine the molecule CO/C(=C\C=C\c1cc2cc(Cl)ccc2[nH]1)C(=O)NCCCN1CCN(c2cc(Cl)ccc2OC)CC1 ; what % Inhibition value has been reported?
Result: 50.82

* * *

// reported % Inhibition for each item listed
# Tested on: P. falciparum stage V gametocytes
# Set-up: BacTiter-Glo ATP luminescence viability of purified stage V gametocytes in 384-well plates, per cent inhibition versus DMSO
# SETUP_CONDITIONS: 48 h, 5 µM; inhibitor
The whole screen tested about 13,000 compounds, of which about 3,200 (25%) showed an effect of 50% or more. This is one part of the list.
Dear colleague, please return just the value in %, with no unit written.

Below, 3 molecules whose answers are already recorded.
{"MOLECULE": "COc1ccc(-c2cccc(NC(=O)c3cccc(C#N)c3)c2)cc1CNC(C)C", "ASSAYED_SYSTEM": "P. falciparum stage V gametocytes", "REPORTED_METRIC": "% Inhibition", "QUANTITATIVE_READOUT": 84.95}
{"MOLECULE": "Oc1cccc(-c2nc(-c3ccccc3)c(-c3ccc4oc5ccc(-c6[nH]c(-c7cccc(O)c7)nc6-c6ccccc6)cc5c4c3)[nH]2)c1", "ASSAYED_SYSTEM": "P. falciparum stage V gametocytes", "REPORTED_METRIC": "% Inhibition", "QUANTITATIVE_READOUT": 14.59}
{"MOLECULE": "CCOc1ccccc1C1C(C(=O)C(C)(C)C)N2c3ccc(Br)cc3C=CC2C12C(=O)c1ccccc1C2=O (stereo not shown)", "ASSAYED_SYSTEM": "P. falciparum stage V gametocytes", "REPORTED_METRIC": "% Inhibition", "QUANTITATIVE_READOUT": 103.1}

Could you now look at the following molecule, please?
Query: Suppose we examine the molecule CCC1N=C(N)N=C(N)N1OCCCOc1c(Cl)cc(Cl)cc1Cl (stereo not shown) ; what % Inhibition value has been reported?
Result: 23.8
